Where do the numbers come from? From patent US9034922B2.

# experimental.target: Matrix metalloproteinase 17 (MMP-17) (Homo sapiens)
# Sequence (Q9ULZ9 126-298 limits assumed): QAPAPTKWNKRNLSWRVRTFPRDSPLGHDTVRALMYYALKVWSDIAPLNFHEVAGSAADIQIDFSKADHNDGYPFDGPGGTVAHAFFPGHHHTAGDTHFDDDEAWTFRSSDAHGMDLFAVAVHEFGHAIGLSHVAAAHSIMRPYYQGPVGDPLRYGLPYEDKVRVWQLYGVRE
Collected pIC50 values appear next to each entry.
Scale: pIC50 equals -log10([C]), with [C] in mol/L.

CNC(=O)[C@H](Cc1c[nH]c2ccccc12)NC(=O)[C@@H](CC(=O)NO)CC(C)C [GM6001, reference compound]    8.52

// field: pIC50; key: CC#CCOc1ccc(S(=O)(=O)CC(c2ccc(CNS(C)(=O)=O)cc2)N(O)C=O)cc1 (stereo not drawn) ; value = 5.47

// field: pIC50; key: CC#CCOc1ccc(S(=O)(=O)CC(c2ccc(CN(CC)CC)cc2)N(O)C=O)cc1 (stereo not drawn) ; value = 5.55
